TEST_DETAILS: Metabolic stability in human liver microsomes assessed as compound remaining after 15 mins by UPLC analysis
Format: ADME
CONDITION_INFO: read-out: Stability
QUANTITY_MEASURED: remaining at […] (%)
Number in %, nothing else.

Ask | Which measured remaining at […] value corresponds to Nc1nc(N)nc(Nc2ccc([As]3SCC(CO)S3)cc2)n1 (stereo unspecified) ?
Reply | 84

###

TEST_DETAILS: Octanol-phosphate buffer partition coefficient, log D of the compound at pH 7.4 after 2 hrs of shaking after 2 hrs
Assay type: physicochemical
QUANTITY_MEASURED: logD at 2 h
No unit in the answer, only the number.

Ask | # get_value(readout='logD at 2 h', item= Nc1nc(N)nc(Nc2ccc([As]3SCC(CO)S3)cc2)n1 (stereo unspecified) )
Reply | 4.51

###

TEST_DETAILS: Metabolic stability in human plasma assessed as compound remaining after 1 hr
Type: ADME, cell-free
CONDITION_INFO: read-out: Stability
QUANTITY_MEASURED: remaining at 1 h (%)
Expressed in %, but write only the number.

Ask | Entry under review: Nc1nc(N)nc(Nc2ccc([As]3SCC(CO)S3)cc2)n1 (stereo unspecified) . Reported remaining at 1 h?
Reply | 100

###

System: Trypanosoma cruzi
TEST_DETAILS: Trypanocidal activity against nifurtimox-sensitive Trypanosoma cruzi Tulahuen CL2 infected in human MRC5 SV2 cells assessed as parasite growth inhibition after […] by beta-galactosidase assay
Format: functional, organism-based
// classify: if (IC50 < 4 µM) met else not met

Below are worked cases with known answers.
[[record]]
compound = "CC(C)=CCOc1cc(NC(=S)c2ccoc2C)ccc1Cl"
target_or_test_system = "Trypanosoma cruzi"
classification = "not met"

[[record]]
compound = "CC(C)Nc1cccnc1N1CCN(C(=O)c2cc3cc(NS(C)(=O)=O)ccc3[nH]2)CC1"
target_or_test_system = "Trypanosoma cruzi"
classification = "not met"

[[record]]
compound = "NS(=O)(=O)c1ccc(Oc2ccc(NC(=O)N[C@H]3[C@@H]4COc5c(F)ccc(F)c5[C@@H]43)nc2)cc1"
target_or_test_system = "Trypanosoma cruzi"
classification = "not met"

[[record]]
compound = "N#Cc1ccc(NC(=O)N[C@@H]2[C@@H]3COc4c(F)ccc(F)c4[C@@H]32)nc1"
target_or_test_system = "Trypanosoma cruzi"
classification = "not met"

[[record]]
compound = "c1ccc(Nc2ccnc(Nc3ccccc3)n2)cc1"
target_or_test_system = "Trypanosoma cruzi"
classification = "not met"

[[record]]
compound = "CCc1nn(CCO)c(CC)c1Oc1cc(C#N)cc(C#N)c1"
target_or_test_system = "Trypanosoma cruzi"
classification = "not met"

[[record]]
compound = "CC1CS(=O)(=O)CCN1/N=C/c1ccc([N+](=O)[O-])o1 (configuration not stated)"
target_or_test_system = "Trypanosoma cruzi"
classification = "met"

[[record]]
compound = "Cc1ccnc2c1NC(=O)c1cccnc1N2C1CC1"
target_or_test_system = "Trypanosoma cruzi"
classification = "not met"

[[record]]
compound = "O=C1Nc2ccc(Cl)cc2[C@@](C#CC2CC2)(C(F)(F)F)O1"
target_or_test_system = "Trypanosoma cruzi"
classification = "not met"

[[record]]
compound = "O=C(Cn1ccnc1[N+](=O)[O-])NCc1ccccc1"
target_or_test_system = "Trypanosoma cruzi"
classification = "met"


Ask | Here's an entry: `Cc1cc(C#N)cc(C)c1Oc1nc(Nc2ccc(C#N)cc2)nc(N)c1Br` . Is its IC50 below 4 µM?
Reply | not met

Ask | Below 4 µM on IC50? Entry `Cc1cc(C)c(Nc2ccnc(Nc3ccc(C#N)cc3)n2)c(C)c1`
Reply | met

This collection of values is drawn from ChEMBL document CHEMBL3352040.
